The reported measurements were obtained from PubChem BioAssay AID2060907.

- Tested on: 388556-164-R-J1-PDC complex spheroid viability;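 note: spheroids exposed to compound for 7 days before readout; 100% = DMSO vehicle control luminescence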
- experimentalDetails: Anticancer human tumor 388556-164-R-J1-PDC patient-derived colon adenocarcinoma cell line growth inhibition [RAS]
- conditionSet: second compound 0.0949 µM; first compound 0.0316 µM; hits give low values

molecule	systemTested	viability, T/C (%)
Nc1ccn(C2OC(CO)C(O)C2(F)F)c(=O)n1 (configuration not stated) + CCn1c(-c2cc(N3CCN(C)CC3)cnc2C(C)OC)c2c3cc(ccc31)-c1csc(n1)CC(NC(=O)C1CC1C)C(=O)N1CCCC(N1)C(=O)OCC(C)(C)C2	388556-164-R-J1-PDC complex spheroid viability	40.6
CC(C)n1nc(-c2ccc3oc(N)nc3c2)c2c(N)ncnc21 + CCn1c(-c2cccnc2C(C)OC)c2c3cc(ccc31)N1CCOC(CC(NC(=O)C(C(C)C)N(C)C(=O)C3(F)CCN(C(=O)C#CC(C)(C)N(C)C)CC3)C(=O)N3CCCC(N3)C(=O)OCC(C)(C)C2)C1	388556-164-R-J1-PDC complex spheroid viability	63.8
C=CC(=O)Nc1cc(Nc2nccc(-c3cn(C)c4ccccc34)n2)c(OC)cc1N(C)CCN(C)C + CCn1c(-c2cc(N3CCN(C)CC3)cnc2C(C)OC)c2c3cc(ccc31)-c1csc(n1)CC(NC(=O)C1CC1C)C(=O)N1CCCC(N1)C(=O)OCC(C)(C)C2	388556-164-R-J1-PDC complex spheroid viability	46.8
CC(C)n1nc(-c2ccc3oc(N)nc3c2)c2c(N)ncnc21 + CCn1c(-c2cc(N3CCN(C)CC3)cnc2C(C)OC)c2c3cc(ccc31)-c1csc(n1)CC(NC(=O)C1CC1C)C(=O)N1CCCC(N1)C(=O)OCC(C)(C)C2	388556-164-R-J1-PDC complex spheroid viability	27.9
C[C@@H](NC(=O)c1ncnc(N)c1Cl)c1ncc(C(=O)Nc2cc(C(F)(F)F)c(Cl)cn2)s1 + CCn1c(-c2cccnc2C(C)OC)c2c3cc(ccc31)N1CCOC(CC(NC(=O)C(C(C)C)N(C)C(=O)C3(F)CCN(C(=O)C#CC(C)(C)N(C)C)CC3)C(=O)N3CCCC(N3)C(=O)OCC(C)(C)C2)C1	388556-164-R-J1-PDC complex spheroid viability	93.4
CC(C)NCC(C(=O)N1CCN(c2ncnc3c2C(C)CC3O)CC1)c1ccc(Cl)cc1 (configuration not stated) + CCn1c(-c2cccnc2C(C)OC)c2c3cc(ccc31)N1CCOC(CC(NC(=O)C(C(C)C)N(C)C(=O)C3(F)CCN(C(=O)C#CC(C)(C)N(C)C)CC3)C(=O)N3CCCC(N3)C(=O)OCC(C)(C)C2)C1	388556-164-R-J1-PDC complex spheroid viability	84.8
Cc1nc(N2CCC3(CC2)COC(C)C3N)c(CO)nc1Sc1ccnc(N)c1Cl (configuration not stated) + CCn1c(-c2cccnc2C(C)OC)c2c3cc(ccc31)N1CCOC(CC(NC(=O)C(C(C)C)N(C)C(=O)C3(F)CCN(C(=O)C#CC(C)(C)N(C)C)CC3)C(=O)N3CCCC(N3)C(=O)OCC(C)(C)C2)C1	388556-164-R-J1-PDC complex spheroid viability	90.1
